These measurements were taken from ChEMBL document CHEMBL1147922.

System: Staphylococcus aureus
assay-procedure: Antibacterial activity against Staphylococcus aureus ATCC 13709
Assay type: functional
metric: MIC (µg/mL)

[[record]]
compound = "O=C1CSc2ccc(C(=O)NC3CCc4nn(-c5cccc6ccccc56)cc4C3)cc2N1 (stereo not drawn)"
test_value = 0.5

[[record]]
compound = "COc1ccc2nccc(-n3cc4c(n3)CCC(NC(=O)c3ccc5c(c3)OCCO5)C4)c2n1 (stereo not drawn)"
test_value = 0.5

[[record]]
compound = "COc1ccc2nccc(-n3cc4c(n3)CCC(NC(=O)c3cc5c(cc3C(=O)O)SCC(=O)N5)C4)c2n1 (stereo not drawn)"
test_value = 0.5


---

assay-procedure: Inhibition of bacterial DNA topoisomerase 4
metric: IC50 (µg/mL)

(P) COc1ccc2nccc(-n3cc4c(n3)CCC(NCc3ccc5c(c3)OCCO5)C4)c2n1 (stereo not drawn)
(Q) COc1ccc2nccc(-n3cc4c(n3)CCC(NCc3ccc5c(n3)NC(=O)CO5)C4)c2c1 (stereo not drawn)
Given P and given Q , which shows the smaller recorded IC50? Bench note: the answer is the label of the chosen record.
Q
